molecular target: recombinant human SAE enzyme (Homo sapiens (Human), UniProt Q9UBT2); experiment: SAE HTRF enzyme assay; assay type: biochemical; conditions: SAE inhibition; class symbols, legend in nM
Sequence (Q9UBT2 whole entry): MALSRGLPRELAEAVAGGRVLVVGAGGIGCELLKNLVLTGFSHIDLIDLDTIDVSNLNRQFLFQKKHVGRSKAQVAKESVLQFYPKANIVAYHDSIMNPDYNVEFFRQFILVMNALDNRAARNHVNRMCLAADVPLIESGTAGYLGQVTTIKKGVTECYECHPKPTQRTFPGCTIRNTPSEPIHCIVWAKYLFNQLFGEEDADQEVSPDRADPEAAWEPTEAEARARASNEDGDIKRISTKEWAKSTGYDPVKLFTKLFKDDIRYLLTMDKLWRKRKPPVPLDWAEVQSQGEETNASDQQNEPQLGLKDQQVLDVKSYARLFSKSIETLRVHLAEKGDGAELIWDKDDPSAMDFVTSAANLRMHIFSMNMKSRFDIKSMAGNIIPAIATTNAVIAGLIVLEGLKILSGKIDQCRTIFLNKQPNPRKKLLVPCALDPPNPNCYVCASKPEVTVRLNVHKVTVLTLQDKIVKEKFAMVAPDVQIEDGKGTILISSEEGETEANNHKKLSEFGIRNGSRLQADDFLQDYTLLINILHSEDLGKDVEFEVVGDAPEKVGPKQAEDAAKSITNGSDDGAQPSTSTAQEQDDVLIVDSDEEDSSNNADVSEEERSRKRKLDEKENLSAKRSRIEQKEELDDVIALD
Sequence (Q9UBE0 whole entry partner): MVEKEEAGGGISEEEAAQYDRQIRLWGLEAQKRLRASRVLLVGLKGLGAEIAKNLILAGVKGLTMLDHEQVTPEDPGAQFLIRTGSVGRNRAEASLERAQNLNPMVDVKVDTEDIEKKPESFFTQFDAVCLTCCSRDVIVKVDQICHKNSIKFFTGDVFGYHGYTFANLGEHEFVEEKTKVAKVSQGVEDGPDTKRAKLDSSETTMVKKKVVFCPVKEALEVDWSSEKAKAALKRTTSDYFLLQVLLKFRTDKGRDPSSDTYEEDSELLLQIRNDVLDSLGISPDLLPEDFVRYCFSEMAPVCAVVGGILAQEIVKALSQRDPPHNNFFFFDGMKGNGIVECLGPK
Would you kindly list IC50 for each of these compounds?

Input line: For recombinant human SAE enzyme (Homo sapiens (Human), UniProt Q9UBT2), provide IC50 of Cc1sc(C(=O)c2cncnc2N[C@@H]2C[C@H](COS(N)(=O)=O)[C@@H](O)C2)nc1C1OCCc2ccc(Cl)cc21 (single isomer, unassigned) [I-300a] please.
Output line: 100 to 1000 nM

Input line: For recombinant human SAE enzyme (Homo sapiens (Human), UniProt Q9UBT2), provide IC50 of Cc1sc(C(=O)c2cncnc2N[C@@H]2C[C@H](COS(N)(=O)=O)[C@@H](O)C2)cc1-c1nccc2ccc(Cl)cc12 please.
Output line: < 10 nM

Input line: For recombinant human SAE enzyme (Homo sapiens (Human), UniProt Q9UBT2), provide IC50 of Cc1sc(C(=O)c2cncnc2N[C@@H]2C[C@H](COS(N)(=O)=O)[C@@H](O)C2)cc1C1OCCc2oc(Cl)cc21 (single isomer, unassigned) [I-298a] please.
Output line: 100 to 1000 nM

Input line: For recombinant human SAE enzyme (Homo sapiens (Human), UniProt Q9UBT2), provide IC50 of Cc1nc2c(s1)CCO[C@H]2c1cc(C(=O)c2cncnc2N[C@@H]2C[C@H](COS(N)(=O)=O)[C@@H](O)C2)sc1C (single isomer, unassigned) [I-287a] please.
Output line: 100 to 1000 nM

Input line: For recombinant human SAE enzyme (Homo sapiens (Human), UniProt Q9UBT2), provide IC50 of Cc1sc(C(=O)c2cncnc2N[C@@H]2C[C@H](COS(N)(=O)=O)[C@@H](OC(=O)[C@@H](N)C(C)C)C2)cc1[C@@H]1OCCc2ccc(Cl)cc21 please.
Output line: 10 to 100 nM

Input line: For recombinant human SAE enzyme (Homo sapiens (Human), UniProt Q9UBT2), provide IC50 of Cc1sc(C(=O)c2cncnc2N[C@@H]2C[C@H](COS(N)(=O)=O)[C@@H](O)C2)cc1[C@@H]1OCCc2cccnc21 (mixture of isomers) [I-285] please.
Output line: < 10 nM

Input line: For recombinant human SAE enzyme (Homo sapiens (Human), UniProt Q9UBT2), provide IC50 of CC[C@H](C)[C@H](N)C(=O)O[C@H]1C[C@H](Nc2ncncc2C(=O)c2cc([C@@H]3OCCc4ccc(Cl)cc43)c(C)s2)C[C@@H]1COS(N)(=O)=O.Cl [I-363, hydrochloride] please.
Output line: 100 to 1000 nM

Input line: For recombinant human SAE enzyme (Homo sapiens (Human), UniProt Q9UBT2), provide IC50 of NS(=O)(=O)OC[C@H]1C[C@@H](Nc2ncncc2C(=O)c2cc([C@@H]3OCCCc4ccc(Cl)cc43)cs2)C[C@@H]1O (mixture of isomers) [I-314] please.
Output line: < 10 nM

Input line: For recombinant human SAE enzyme (Homo sapiens (Human), UniProt Q9UBT2), provide IC50 of Cc1sc(C(=O)c2cncnc2N[C@@H]2C[C@H](COS(N)(=O)=O)[C@@H](O)C2)cc1[C@@H]1OCCn2c1nc1ccccc12 (mixture of isomers) please.
Output line: < 10 nM

Input line: For recombinant human SAE enzyme (Homo sapiens (Human), UniProt Q9UBT2), provide IC50 of NS(=O)(=O)OC[C@H]1C[C@@H](Nc2ncncc2C(=O)c2cc([C@@H]3OCCc4ccc(F)cc43)c(Cl)s2)C[C@@H]1O (single isomer, unassigned) [I-294] please.
Output line: < 10 nM

Input line: For recombinant human SAE enzyme (Homo sapiens (Human), UniProt Q9UBT2), provide IC50 of NS(=O)(=O)OC[C@H]1C[C@@H](Nc2ncncc2C(=O)c2cc([C@H]3NCCc4ccccc43)c(Cl)s2)[C@H](O)[C@@H]1O (mixture of isomers) please.
Output line: < 10 nM

Input line: For recombinant human SAE enzyme (Homo sapiens (Human), UniProt Q9UBT2), provide IC50 of Cc1ccc2c(n1)[C@H](c1cc(C(=O)c3cncnc3N[C@@H]3C[C@H](COS(N)(=O)=O)[C@@H](O)C3)sc1C)OCC2 (mixture of isomers) please.
Output line: < 10 nM

Just for reference, patent US10780090B2 is where these values come from.
